- Protocol text: chemical genetic growth profiling, strain panel (AID 1159580);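 also: tested at 20 µM; growth read once vehicle control cultures reached saturation at 30 °C; 1 = growth at the plate median or of vehicle wells; lower values mean less growth of the strain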
- Condition label: S. cerevisiae deletion strains, growth OD, locus YDR054C, strain cdc34, active compounds read low
Screen size: about 5,500 compounds; about 2,000 (36%) were called active. Roughly 18% stayed inconclusive and do not appear here. This is one part of the list.
Form field: normalized growth (one value per entry).

>  <Compound>
COc1ccc(C2CC(c3ccccc3)=Nc3ccccc3S2)cc1OC (stereo not drawn)

>  <normalized growth>
0.958

$$$$
>  <Compound>
N=c1ccc2nc3c(Cl)c4c(c(Cl)c3oc-2c1S(=O)(=O)O)Nc1ccc(N)c(S(=O)(=O)O)c1O4

>  <normalized growth>
1

$$$$
>  <Compound>
Fc1ccc(N/N=C\Cc2nnnn2-c2ccccc2)c(F)c1

>  <normalized growth>
0.904

$$$$
